# maps each entry to its % Kill, MCF7/PRLR cells
# test.system: T1, human prolactin receptor (PRLR) (human, UniProt P16471 25-622)
# T1 sequence: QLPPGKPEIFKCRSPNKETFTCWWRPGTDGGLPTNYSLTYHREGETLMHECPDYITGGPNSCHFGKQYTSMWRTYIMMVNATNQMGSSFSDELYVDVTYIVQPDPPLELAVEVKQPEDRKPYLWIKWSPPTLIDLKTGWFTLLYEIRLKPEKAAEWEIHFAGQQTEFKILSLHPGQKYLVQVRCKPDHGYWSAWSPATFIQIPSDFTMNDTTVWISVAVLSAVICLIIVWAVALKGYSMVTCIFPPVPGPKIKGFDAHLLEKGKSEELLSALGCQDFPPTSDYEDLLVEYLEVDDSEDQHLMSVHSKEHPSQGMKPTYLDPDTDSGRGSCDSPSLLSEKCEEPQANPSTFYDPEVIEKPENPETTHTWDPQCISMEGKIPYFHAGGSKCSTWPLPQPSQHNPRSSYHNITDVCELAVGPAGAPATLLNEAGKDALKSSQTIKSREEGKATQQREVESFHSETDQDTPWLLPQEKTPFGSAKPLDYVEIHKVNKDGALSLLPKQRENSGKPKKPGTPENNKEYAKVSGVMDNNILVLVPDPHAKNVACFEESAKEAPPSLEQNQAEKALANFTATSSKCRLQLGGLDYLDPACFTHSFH
# method.notes: cell-based or functional assay

Reference set, count: 4
1) H1H6762P-DM1 (antibody, human IgG1, V domains shown, DM1 conjugated through SMCC linker; attachment residues not stated) VH: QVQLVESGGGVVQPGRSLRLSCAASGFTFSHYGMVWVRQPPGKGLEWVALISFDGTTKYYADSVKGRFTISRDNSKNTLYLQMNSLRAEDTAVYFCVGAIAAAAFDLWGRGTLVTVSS VL: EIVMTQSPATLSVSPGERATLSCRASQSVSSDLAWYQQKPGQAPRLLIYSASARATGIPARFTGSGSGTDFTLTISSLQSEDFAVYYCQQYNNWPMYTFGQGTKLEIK ... 83%
2) H1H6765P-DM1 (antibody, human IgG1, V domains shown, DM1 conjugated through SMCC linker; attachment residues not stated) VH: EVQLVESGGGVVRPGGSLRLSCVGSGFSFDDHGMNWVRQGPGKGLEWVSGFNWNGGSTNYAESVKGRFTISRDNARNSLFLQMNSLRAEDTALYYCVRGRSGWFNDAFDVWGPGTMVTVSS VL: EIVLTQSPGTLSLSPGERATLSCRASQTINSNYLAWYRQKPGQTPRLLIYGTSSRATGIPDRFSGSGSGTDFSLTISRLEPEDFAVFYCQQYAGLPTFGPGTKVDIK ... 84%
3) H1H6800P-DM1 (antibody, human IgG1, V domains shown, DM1 conjugated through SMCC linker; attachment residues not stated) VH: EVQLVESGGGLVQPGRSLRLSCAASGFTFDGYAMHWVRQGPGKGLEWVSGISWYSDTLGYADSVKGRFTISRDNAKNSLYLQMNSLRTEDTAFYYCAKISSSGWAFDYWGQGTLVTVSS VL: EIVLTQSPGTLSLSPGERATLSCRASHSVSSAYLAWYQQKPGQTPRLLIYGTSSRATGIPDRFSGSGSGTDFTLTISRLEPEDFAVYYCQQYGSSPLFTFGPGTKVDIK ... 85%
4) H1H6803P-DM1 (antibody, human IgG1, V domains shown, DM1 conjugated through SMCC linker; attachment residues not stated) VH: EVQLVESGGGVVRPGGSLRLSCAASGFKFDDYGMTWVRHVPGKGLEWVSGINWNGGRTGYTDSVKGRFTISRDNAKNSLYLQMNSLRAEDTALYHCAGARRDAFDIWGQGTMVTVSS VL: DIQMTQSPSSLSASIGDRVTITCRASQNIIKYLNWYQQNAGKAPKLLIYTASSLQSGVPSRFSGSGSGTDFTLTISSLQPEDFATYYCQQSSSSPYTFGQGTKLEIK ... 84%

Q. Kindly indicate its recorded % Kill, MCF7/PRLR cells. Item: H1H6960N-DM1 (antibody, human IgG1, V domains shown, DM1 conjugated through SMCC linker; attachment residues not stated) VH: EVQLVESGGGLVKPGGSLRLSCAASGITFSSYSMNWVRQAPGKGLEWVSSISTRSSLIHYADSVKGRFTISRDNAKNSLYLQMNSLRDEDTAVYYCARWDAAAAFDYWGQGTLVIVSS VL: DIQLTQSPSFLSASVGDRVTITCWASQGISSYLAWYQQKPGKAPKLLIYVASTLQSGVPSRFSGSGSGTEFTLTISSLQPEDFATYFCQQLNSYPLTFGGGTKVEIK
A. 78%
